B1: Neutrophil cytosol factor 2, residues 456 to 514; numbered along this chain, P19878 (parent)
chain: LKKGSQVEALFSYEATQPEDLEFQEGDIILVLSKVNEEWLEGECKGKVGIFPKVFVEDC

# Variants of: B1
# experimental details: abundance fitness (aPCA) (normalised: wild type 0, dead -1); higher = more abundant; growth selection in yeast, the domain comes from the species named
# assay setup: Homo sapiens
Readings of abundance fitness for the listed variants
recorded metric: abundance fitness

sequence record: LKKGSQVEALFSYEATQPEDLEFQEGDIILVLSKVNEEWLEGECKGKVGIFPKLFVEDC [V54L]
result value: -0.434
//
sequence record: LKKGSQVEALFSYEATQPEDLEFQEGDIILVLSKVNEEWLEGGCKGKVGIFPKVFVEDC [E43G]
result value: -0.152
//
sequence record: LKKGSQVEALFSYEATQPEDLEFQEGDIILVLSKVNEEWLEGECKVKVGIFPKVFVEDC [G46V]
result value: -0.585
//
sequence record: LKKGSQVEALFSYEATQPEDLEDQEGDIILVLSKVNEEWLEGECKGKVGIFPKVFVEDC [F23D]
result value: -0.527
//
sequence record: LKKGSQVEALFSYEATQPEDLEFQEGDIILVLSKVNEEWLEGECKGKVYIFPKVFVEDC [G49Y]
result value: -0.503
//
sequence record: LKKGSQVEGLFSYEATQPEDLEFQEGDIILVLSKVNEEWLEGECKGKVGIFPKVFVEDC [A9G]
result value: -0.439
//
sequence record: LKKGDQVEALFSYEATQPEDLEFQEGDIILVLSKVNEEWLEGECKGKVGIFPKVFVEDC [S5D]
result value: 0.797
//
sequence record: LKKGSQVEALFSYEATQPEDLEFQEGDIILVLSKVNEEWLEGECKGKVGIFPKVFVEDG [C59G]
result value: -0.64
//
sequence record: LKKGSQVEALFSYETTQPEDLEFQEGDIILVLSKVNEEWLEGECKGKVGIFPKVFVEDC [A15T]
result value: -1.03
//
sequence record: LKKGSQVAALFSYEATQPEDLEFQEGDIILVLSKVNEEWLEGECKGKVGIFPKVFVEDC [E8A]
result value: 0.164
//
sequence record: LKKGSQVEALFSYEATQPEDLEFQEGDIILVLSKVNEEWLEGECKGKVGIFPKVFFEDC [V56F]
result value: -0.255
//
sequence record: LKKGSQVEALFSYEATQPEDLEFQEGDIILVLSKVNEEDLEGECKGKVGIFPKVFVEDC [W39D]
result value: -0.598
//
sequence record: LKKGSQVEALFSYEATQPEDWEFQEGDIILVLSKVNEEWLEGECKGKVGIFPKVFVEDC [L21W]
result value: -0.457
//
sequence record: LKKGSSVEALFSYEATQPEDLEFQEGDIILVLSKVNEEWLEGECKGKVGIFPKVFVEDC [Q6S]
result value: -0.667
//
sequence record: LKKGSQVEALFSYEATQPEDLEFQEGDIILVLSKVNEEWLEGECKGKVGIFPKVFVEDF [C59F]
result value: -0.044
//
sequence record: LKKGSQVEALFSYDATQPEDLEFQEGDIILVLSKVNEEWLEGECKGKVGIFPKVFVEDC [E14D]
result value: -0.073
